Values of pIC50 for UniProt:P29089, collected from a number of published sources:
pIC50: −log10 of the molar value.
VALUE_KIND: pIC50

Field: example entries. Status: answers known.
- COMPOUND_STRUCTURE: "CCCCc1nc(Cl)c(CO)n1Cc1ccc(C2=C(c3nn[nH]n3)CCCCC2)cc1"
  VALUE_KIND: "pIC50"
  REPORTED_RESULT: 5.55
- COMPOUND_STRUCTURE: "CCCCc1nc(-n2cccc2)c(C(=O)O)n1Cc1ccc(NC(=O)[C@H](Cc2ccccc2)n2cccc2C(=O)O)cc1"
  VALUE_KIND: "pIC50"
  REPORTED_RESULT: 6.47
- COMPOUND_STRUCTURE: "CCCc1cc(=O)n(Cc2ccccc2C(=O)OC)c(=O)n1Cc1ccc(-c2ccccc2-c2nnn[nH]2)cc1"
  VALUE_KIND: "pIC50"
  REPORTED_RESULT: 8.64

(1) CCc1nn(Cc2ccc(-c3ccccc3-c3nn[nH]n3)cc2)/c(=N/C(=O)C2=C(C(=O)O)CCC2)s1
(2) CCCCc1nc(CCCC)n(Cc2ccc(-c3cnccc3-c3nnn[nH]3)cc2)n1
(3) CCCCc1nc(-n2cccc2)c(C(=O)OCC)n1Cc1ccc(NC(=O)[C@H](Cc2ccccc2)n2cccc2C(=O)O)cc1
Put the entries in order of pIC50, starting with the largest number. Returns: the labels listed in the requested order.
1, 2, 3
(1: 9.36, 2: 6.82, 3: 5.60)

(I) CCCCc1nc(CCCC)n(Cc2ccc(-c3ccccc3-c3nnn[nH]3)cc2)n1
(II) CCc1nc2c(C)cc(C)nc2n1Cc1ccc(-c2c(C(=O)O)c(OC)nc3ccccc23)cc1
(III) CCCCc1ncc(C(=O)O)n1Cc1ccc(NC(=O)[C@H](Cc2ccccc2)n2cccc2C(=O)O)cc1
(IV) CCCCc1nc(Cl)c(CC(=O)OC)n1Cc1ccc(NC(=O)[C@H](Cc2ccccc2)n2ccc(C(=O)OCC)c2C)cc1
Rank by pIC50 (largest to smallest). Please list the labels in the order you were asked to rank them.
I, III, II, IV

(1) CCCCc1nc(CCCC)n(Cc2ccc(-c3cccnc3-c3nnn[nH]3)cc2)n1
(2) CCc1nc2c(C)cc(C)nc2n1Cc1ccc(-c2c(-c3nnn[nH]3)cnc3ccccc23)cc1
(3) CCCc1nc2c(C)ccnc2n1Cc1ccc(-c2cccnc2-c2nn[nH]n2)cc1
Please give the order of these compounds when sorted by pIC50, largest value leading. Returns: the labels listed in the requested order.
2, 3, 1

###

Please find below IC50 measurements for UniProtKB P29089, combined from several publications.
VALUE_KIND: IC50 (nM)

- COMPOUND: "CCCc1cc(=O)n(CCNC(=O)NC2CCCCC2)c(=O)n1Cc1ccc(-c2ccccc2-c2nnn[nH]2)cc1"
  ASSAYED_TARGET: "UniProtKB P29089"
  IC50, nM: 1.4
- COMPOUND: "CCCCC1=NC(C)(c2ccccc2)C(=O)N1Cc1ccc(-c2ccccc2C(=O)O)cc1 (stereo not given)"
  ASSAYED_TARGET: "UniProtKB P29089"
  IC50, nM: 19

(1) CCCCc1nc(Cl)c(CCC(=O)O)n1Cc1ccc(NC(=O)[C@H](Cc2ccccc2)n2cccc2C(=O)O)cc1
(2) CCCc1nc2c(C)ccnc2n1Cc1ccc(-c2ccccc2-c2nn[nH]n2)cc1
(3) CCCc1nc2c(C)cc(C)nc2n1Cc1ccc(-c2c(C(=O)O)c(Cl)nc3ccccc23)cc1
Output the entries ranked by IC50 from maximum down to minimum. The reply should contain the labels ordered as requested.
1, 3, 2

###

Compiled notes: published pIC50 values involving Type-1 angiotensin II receptor B (Rattus norvegicus).
Target: Type-1 angiotensin II receptor B (Rattus norvegicus)
Sequence (P29089 whole entry): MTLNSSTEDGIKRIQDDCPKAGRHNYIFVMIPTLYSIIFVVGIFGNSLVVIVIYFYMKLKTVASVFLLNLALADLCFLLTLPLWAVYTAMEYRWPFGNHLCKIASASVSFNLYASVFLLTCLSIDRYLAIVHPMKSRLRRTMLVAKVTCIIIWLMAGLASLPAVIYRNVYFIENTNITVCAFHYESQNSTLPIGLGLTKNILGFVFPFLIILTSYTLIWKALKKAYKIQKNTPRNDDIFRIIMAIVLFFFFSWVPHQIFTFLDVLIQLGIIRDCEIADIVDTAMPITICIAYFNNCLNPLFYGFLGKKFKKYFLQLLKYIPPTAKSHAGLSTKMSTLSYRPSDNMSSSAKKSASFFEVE
pIC50: −log10 of the molar value.
VALUE_KIND: pIC50

- COMPOUND_STRUCTURE: "CCCCc1nc(Cl)c(C(=O)O)n1Cc1ccc(NC(=O)[C@H](Cc2cccs2)n2cccc2C(=O)O)cc1"
  pIC50: 6.74

(I) CCCCc1nc(Cl)c(CO)n1Cc1ccc(NC(=O)[C@H](Cc2ccccc2)n2cccc2C(=O)O)cc1
(II) CCCCc1ncc(/C=C(\Cc2cccs2)C(=O)O)n1Cc1ccc(C(=O)O)c(Cl)c1Cl
(III) CCCCC(=O)N(Cc1ccc(-c2ccccc2-c2nnn[nH]2)cc1)[C@H](C(=O)O)C(C)C
Arrange these compounds by their pIC50, starting with the largest number. List labels; respect the requested ordering.
II, III, I
(II: 9.80, III: 8.72, I: 6.74)

###

Before we begin, note that these IC50 values for Type-1 angiotensin II receptor B (Rattus norvegicus, UniProt P29089) originate from several publications.
Target: Type-1 angiotensin II receptor B (Rattus norvegicus, UniProt P29089)
Sequence (P29089 whole entry): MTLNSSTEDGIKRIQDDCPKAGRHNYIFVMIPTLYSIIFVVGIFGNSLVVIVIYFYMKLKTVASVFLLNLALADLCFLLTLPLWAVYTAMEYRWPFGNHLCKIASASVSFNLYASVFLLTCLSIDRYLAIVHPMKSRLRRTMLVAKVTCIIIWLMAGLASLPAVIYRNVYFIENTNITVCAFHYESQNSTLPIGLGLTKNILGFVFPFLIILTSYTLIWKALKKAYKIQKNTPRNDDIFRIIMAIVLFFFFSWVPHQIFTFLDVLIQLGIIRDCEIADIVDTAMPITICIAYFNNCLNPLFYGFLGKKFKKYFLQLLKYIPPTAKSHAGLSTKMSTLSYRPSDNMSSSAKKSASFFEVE
VALUE_KIND: IC50 (nM)

(A) CCCCc1nc(Cl)c(C(=O)O)n1Cc1ccc(-c2ccccc2C(=O)O)cc1
(B) CCc1nn(Cc2ccc(-c3ccccc3-c3nn[nH]n3)cc2)/c(=N/C(C)=O)s1
(C) CCc1nc2c(C)cc(C)nc2n1Cc1ccc(-c2c(C(=O)O)c(NC)nc3ccccc23)cc1
In ascending order of recorded IC50, list the compounds from the set above. In your reply, arrange the labels in the requested order.
B, C, A
(B: 7.2 nM, C: 13 nM, A: 92 nM)

###

Biological target: UniProt:P29089
Sequence (P29089 whole entry): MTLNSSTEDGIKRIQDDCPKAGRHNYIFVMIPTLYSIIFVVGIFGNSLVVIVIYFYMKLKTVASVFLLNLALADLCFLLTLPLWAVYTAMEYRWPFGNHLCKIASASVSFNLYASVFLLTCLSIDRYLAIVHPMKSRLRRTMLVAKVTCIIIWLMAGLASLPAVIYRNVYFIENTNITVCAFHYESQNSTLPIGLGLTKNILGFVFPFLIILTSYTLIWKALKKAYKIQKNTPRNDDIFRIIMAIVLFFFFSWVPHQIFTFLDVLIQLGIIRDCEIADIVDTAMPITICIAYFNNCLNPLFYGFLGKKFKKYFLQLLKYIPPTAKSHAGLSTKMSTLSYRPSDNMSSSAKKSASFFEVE
Listed below are compounds with IC50 for UniProt:P29089, each taken from published literature.
VALUE_KIND: IC50 (nM)

(I) CCCc1nc2c(C)ccnc2n1Cc1ccc(-c2ccncc2-c2nnn[nH]2)cc1
(II) CCc1nc2c(C)cc(C)nc2n1Cc1ccc(-c2c(C(=O)O)c(N(C)C)nc3ccccc23)cc1
Of the two listed items, I and II , which carries the larger IC50 figure? Your answer should be the label of the entry you select.
II
(II: 29 nM, I: 4 nM)

(1) CCCCc1nc(Cl)c(CO)n1Cc1ccc(-c2ccccc2C(=O)O)cc1
(2) CCCc1nc2c(C)cc(C)nc2n1Cc1ccc(-c2c(C(=O)O)c(N)nc3ccccc23)cc1
(3) CCCCc1nc(Cl)c(CC(=O)O)n1Cc1ccc(NC(=O)[C@H](Cc2ccccc2)n2cc(C#N)c3ccccc32)cc1
Rank items: key IC50, increasing. Answer by writing out the labels in the requested order.
2, 1, 3
(2: 4.2 nM, 1: 170 nM, 3: 1290 nM)
